Entries and their Dmax values follow.
Target: KRAS WT (expanded) protein in MKN1 cells (Homo sapiens, UniProt P01116)
Construct: endogenous in cells; host or cells: MKN1 (MKN-1)
Sequence (P01116 1-188 isoform P01116-2): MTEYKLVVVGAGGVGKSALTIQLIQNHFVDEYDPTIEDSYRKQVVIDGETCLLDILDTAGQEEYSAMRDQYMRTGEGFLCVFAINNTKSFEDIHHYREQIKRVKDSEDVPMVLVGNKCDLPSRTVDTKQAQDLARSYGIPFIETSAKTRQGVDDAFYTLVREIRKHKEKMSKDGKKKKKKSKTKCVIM
Test: KRAS degradation assay (Western Blot) in MKN1 cells
Assay type: cell-based
Details: MKN-1, 24 h
Provide the reading as a plain figure in %.

[2H]C([2H])([2H])Oc1ccc(C(=O)N2CCC3(CCC(CN4CCN(C[C@@H](C)COc5nc(N6CCC[C@@](C)(O)C6)c6cnc(-c7cc(O)cc8ccc(F)c(C#C)c78)c(F)c6n5)CC4)CC3)CC2)cc1N1CCC(=O)NC1=O; 99.5

Kindly review the next compound as well.
Return reported Dmax; argument: "[2H]C([2H])([2H])c1ccc(C(=O)N2CCC3(CCC(CN4CCN(CC5(COc6nc(N7CCC[C@@](C)(O)C7)c7cnc(-c8cc(O)cc9ccc(F)c(C#C)c89)c(F)c7n6)CC5)CC4)CC3)CC2)cc1N1CCC(=O)NC1=O" 99.9

---

Entries and their Dmax values follow.
Molecular target: KRAS G12V protein in SW900 cells (Homo sapiens, UniProt P01116, G12V)
Construct: endogenous in cells; host or cells: SW900
Sequence (P01116 1-188 isoform P01116-2 G12V): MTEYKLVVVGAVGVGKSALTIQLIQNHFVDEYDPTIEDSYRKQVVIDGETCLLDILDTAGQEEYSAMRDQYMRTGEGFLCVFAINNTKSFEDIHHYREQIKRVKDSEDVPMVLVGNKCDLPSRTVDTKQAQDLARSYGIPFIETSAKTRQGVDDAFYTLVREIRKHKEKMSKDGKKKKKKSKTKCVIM
Assay: KRAS degradation assay (Western Blot) in SW900 cells
Assay type: cell-based
Settings: 24 h

These recorded examples may help you get a feel for the data.
Cc1ccc(C(=O)N2CCC3(CCC(CN4CCN(CC5(COc6nc(N7CCC[C@@](C)(O)C7)c7cnc(-c8cc(O)cc(Cl)c8C8CC8)c(F)c7n6)CC5)CC4)CC3)CC2)cc1N1CCC(=O)NC1=O; 80 to 100%
C#Cc1c(F)ccc2cc(O)cc(-c3ccc4c(N5CCC[C@@](C)(O)C5)nc(OCC5(CN6CCN(CC7CCC8(CC7)CCN(C(=O)c7ccc(OC)c(N9CCC(=O)NC9=O)c7)CC8)CC6)CC5)nc4c3F)c12; 80 to 100%
C#Cc1c(F)ccc2cc(O)cc(-c3ncc4c(N5CCC[C@@](C)(O)C5)nc(OCC56CC(CN7CCN(CC8CCC9(CC8)CCN(C(=O)c8ccc(C)c(N%10CCC(=O)NC%10=O)c8)CC9)CC7)(C5)C6)nc4c3F)c12; 50 to 80%
C#Cc1cccc2cc(O)cc(-c3ccc4c(N5CCC[C@@](C)(O)C5)nc(OCC5(CN6CCN(CC7CCC8(CC7)CCN(C(=O)c7ccc(OC)c(N9CCC(=O)NC9=O)c7)CC8)CC6)CC5)nc4c3F)c12; 80 to 100%

Return reported Dmax; argument: "CCc1cccc2cc(O)cc(-c3ncc4c(N5CCC[C@@](C)(O)C5)nc(OCC5(CN6CCN(CC7CCC8(CC7)CCN(C(=O)c7ccc(F)c(N9CCC(=O)NC9=O)c7)CC8)CC6)CC5)nc4c3F)c12" 80 to 100%

---

Entries and their DC50 values follow.
Biological target: KRAS G12V protein in SW900 cells (Homo sapiens, UniProt P01116, G12V)
Construct: endogenous in cells; host or cells: SW900
Assay: KRAS degradation assay (Western Blot) in SW900 cells
Format: cell-based
Conditions: 24 h

Return reported DC50; argument: CCc1cccc2cc(O)cc(-c3ccc4c(N5CCC[C@@](C)(O)C5)nc(OCC5(CN6CCN(CC7CCC8(CC7)CCN(C(=O)c7ccc(Cl)c(N9CCC(=O)NC9=O)c7)CC8)CC6)CC5)nc4c3F)c12 [Example 12] ≤ 50 nM

Return reported DC50; argument: C#Cc1c(F)ccc2cc(O)cc(-c3ncc4c(N5CCC[C@@](C)(O)C5)nc(OCC5(CN6CCN(CCCC7CCN(C(=O)c8ccc(Cl)c(N9CCC(=O)NC9=O)c8)CC7)CC6)CC5)nc4c3F)c12 [Example 4] ≤ 50 nM

Return reported DC50; argument: C#Cc1c(F)ccc2cc(O)cc(-c3ncc4c(N5CCC[C@@](C)(O)C5)nc(OCC5(CN6CCC(CCOCC7CCN(C(=O)c8ccc(Cl)c(N9CCC(=O)NC9=O)c8)CC7)CC6)CC5)nc4c3F)c12 [Example 8] ≤ 50 nM

Return reported DC50; argument: CCc1cccc2cc(O)cc(-c3ncc4c(N5CCC[C@@](C)(O)C5)nc(OCC5(CN6CCN(CC7CCC8(CC7)CCN(C(=O)c7ccc(OC)c(N9CCC(=O)NC9=O)c7)CC8)CC6)CC5)nc4c3F)c12 [Example 25] ≤ 50 nM

Return reported DC50; argument: C#Cc1c(F)ccc2cc(O)cc(-c3ncc4c(NC5CC5)nc(OCC5(CN6CCN(CC7CCC8(CC7)CCN(C(=O)c7ccc(OC)c(N9CCC(=O)NC9=O)c7)CC8)CC6)CC5)nc4c3F)c12 [Example 31] 50 to 100 nM
